Where these numbers come from: patent EP4768499A1

Tested on: Caco-2 cells
protocol description: Membrane permeability test using Caco-2 cells with preincubation
Assay type: in vitro ADME
condition description: Caco-2 cells, preincubation 20 to 24 hours; apical FaSSIF/HBSS 1% DMSO pH 6.0, basal HBSS 4% BSA pH 7.4; basal sample at 180 minutes
Starred links: 1 amine or outer side, 2 acyl side, 3 side chain; linkers in the order of their positions; H or OH if unused. Non-standard residues stand in square brackets, D forms with d. Residues, ends and D or L forms follow the SMILES beside them. *: point of attachment. NMeF = CN[C@@H](Cc1ccccc1)C(=O)O; hPhe = N[C@@H](CCc1ccccc1)C(=O)O; NMeβAla = CN(CCC(=O)[*:2])[*:1]; NMeL = CN[C@@H](CC(C)C)C(=O)O; NMeV = CN[C@H](C(=O)O)C(C)C; d(β3hA) = C[C@@H](N)CC(=O)O; NMeA = CN[C@@H](C)C(=O)O; dNMeA = CN[C@H](C)C(=O)O; Abu = CC[C@H](N)C(=O)O; tBu = CC(C)(C)*
Here, each record is paired with measured Caco2 Papp (10^-6 cm/sec) data.

Memo: CC[C@@H]1NC(=O)CCN(C)C(=O)C[C@@H](C)NC(=O)[C@H](CC(C)C)N(C)C(=O)[C@H]([C@@H](C)O)NC(=O)[C@H](C)N(C)C(=O)[C@H]([C@@H](C)CC)NC(=O)[C@H](CCc2ccccc2)NC(=O)[C@H](CC(C)C)N(C)C(=O)[C@H](C)N(C)C(=O)[C@H](Cc2ccccc2)N(C)C(=O)[C@@H]2CCCN2C(=O)[C@H]([C@@H](C)CC)NC(=O)[C@H](CC(C)C)N(C)C1=O [pd051] (cyclo([Abu][NMeL]IP[NMeF][NMeA][NMeL][hPhe]I[NMeA]T[NMeL][d(β3hA)][NMeβAla])) , reported Caco2 Papp (10^-6 cm/sec): 0.21 10^-6 cm/sec

Next molecule, Caco2 Papp (10^-6 cm/sec) to be filled in.
Memo: CC[C@@H]1NC(=O)[C@H](Cc2ccccc2)N(C)C(=O)[C@H](COC(C)(C)C)NC(=O)[C@H](CC(C)C)N(C)C(=O)[C@H](C)N(C)C(=O)[C@@H]2CCCN2C(=O)[C@H]([C@@H](C)O)NC(=O)[C@H](CC(C)C)N(C)C(=O)[C@H]([C@@H](C)CC)NC(=O)[C@H](Cc2ccccc2)N(C)C(=O)[C@H](C(C)C)NC(=O)[C@@H](C)N(C)C(=O)C[C@@H](C)NC(=O)[C@H](C(C)C)N(C)C1=O [pd012] (cyclo([Abu][NMeV][d(β3hA)][dNMeA]V[NMeF]I[NMeL]TP[NMeA][NMeL]S(tBu)[NMeF])) , reported Caco2 Papp (10^-6 cm/sec): 4.30 10^-6 cm/sec
